Measured viability at 10 µg/mL, listed per entry.
- System: HIV (LAV 1)
- test-description: microbe, parasite or virus in culture
- test-settings: Human immunodeficiency virus 1, CCRF-CEM, read-out: Viable cell percentage, 10 mcg/ml, 4-day addition, after 10 days
# number only, unit % dropped from output

Please review the following examples before continuing.
Problem: Return the recorded viability at 10 µg/mL value; entry: CC1COc2c(N3CCN(C)CC3)c(F)cc3c(=O)c(C(=O)O)cn1c23 (racemic)
Result: 85

Problem: Return the recorded viability at 10 µg/mL value; entry: CCN1CCN(c2c(F)cc3c(=O)c(C(=O)O)cn4c3c2OCC4C)CC1 (racemic)
Result: 93

Problem: Return the recorded viability at 10 µg/mL value; entry: CCCCN1CCN(c2c(F)cc3c(=O)c(C(=O)O)cn4c3c2OCC4C)CC1 (racemic)
Result: 93

Problem: Return the recorded viability at 10 µg/mL value; entry: `CCn1cc(C(=O)O)c(=O)c2cc(F)c(N3CCNCC3)cc21`
Result: 91

Problem: Return the recorded viability at 10 µg/mL value; entry: C[C@H]1COc2c(N3CCN(C)CC3)c(F)cc3c(=O)c(C(=O)O)cn1c23 [DR-3355, hemihydrate]
Result: 94

---
Problem: Return the recorded viability at 10 µg/mL value; entry: CC(C)N1CCN(c2c(F)cc3c(=O)c(C(=O)O)cn4c3c2OCC4C)CC1 (racemic)
Result: 91

Problem: Return the recorded viability at 10 µg/mL value; entry: CCCN1CCN(c2c(F)cc3c(=O)c(C(=O)O)cn4c3c2OCC4C)CC1 (racemic)
Result: 83
